meta.source: patent US20210246115A1

System: K. pneumoniae ATCC 43816
Where a name gives a salt, the structure may show the parent alone.
parameter measured: MIC (µg/mL)
Report as a plain number; the unit µg/mL is understood.

Ask: Item Cc1cccc(CC(CC(=O)N[C@H]2CC[C@H](N)CC2)c2cn(CC3CCCCC3)c3ccccc23)c1.Cl (stereo partly shown) with K. pneumoniae ATCC 43816 - MIC?
Reply: 64

Ask: Item Cc1cccc(C(CCNC2CCC(N)CC2)c2cn(CC3CCCCCC3)c3ccccc23)c1 (stereo not shown) [Compound 245, hydrochloride salt] with K. pneumoniae ATCC 43816 - MIC?
Reply: 8

Ask: Item Cc1cccc(C(CCNC2CCNCC2)c2cn(CC3CCCCC3)c3ccc(Br)cc23)c1.Cl (stereo not shown) with K. pneumoniae ATCC 43816 - MIC?
Reply: 4

Ask: Item NC1CCC(NCCC(c2cccc(C(F)(F)F)c2)c2cn(CC3CCCCC3)c3ccccc23)CC1 (stereo not shown) [Compound 168, hydrochloride salt] with K. pneumoniae ATCC 43816 - MIC?
Reply: 4

Ask: Item NC1CCC(NCCC(c2cccc(OC(F)(F)F)c2)c2cn(CC3CCCCC3)c3ccccc23)CC1 (stereo not shown) [Compound 173, hydrochloride salt] with K. pneumoniae ATCC 43816 - MIC?
Reply: 4

Ask: Item N#Cc1ccc2c(c1)c(C(CCNCCCN)c1cccc(OC(F)(F)F)c1)cn2C1CCCCC1 (stereo not shown) [Compound 372, dihydrochloride salt] with K. pneumoniae ATCC 43816 - MIC?
Reply: 2

====

Test system: Staphylococcus aureus subsp. aureus (ATCC29213)
experimental details: MIC, broth microdilution (CLSI), Staphylococcus aureus ATCC29213
Assay type: cell-based
measurement conditions: Staphylococcus aureus, ATCC29213, Table XIII; read-out: S. aureus ATCC 29213 MIC
parameter measured: MIC (µg/mL)
Report as a plain number; the unit µg/mL is understood.

Ask: Entry Cc1cccc(C(CCNCCCNS(=O)(=O)c2ccc(F)cc2)c2cn(C3CCCCC3)c3ccccc23)c1 (centres unmarked) : reported MIC = ?
Reply: 4

Ask: Entry Cl.Cl.NCCCNCCC(c1cc(Cl)cc(Cl)c1)c1cn(C2CCCCC2)c2ccccc12 (centres unmarked) : reported MIC = ?
Reply: 2

Ask: Entry Cc1cccc(CC(CCNC2CCC(N)CC2)c2cn(C3CCCCC3)c3ccccc23)c1.Cl.Cl (centres unmarked) : reported MIC = ?
Reply: 4

Ask: Entry Cl.Cl.N[C@H]1CC[C@H](NCCCc2cn(C3CCCCC3)c3ccc(C4CCCCC4)cc23)CC1 : reported MIC = ?
Reply: 2

Ask: Entry Cc1cccc(C(CCN[C@H]2CC[C@H](NC(N)=O)CC2)c2cn(C3CCCCC3)c3ccccc23)c1 (some centres unmarked) : reported MIC = ?
Reply: 16

Ask: Entry Cc1ccccc1C(CCNCCCN)c1cn(C2CCCC2)c2ccccc12.Cl.Cl (centres unmarked) : reported MIC = ?
Reply: 16

Ask: Entry Cl.Cl.c1ccc2c(c1)c(C(CCNC1CCNCC1)c1ccncc1)cn2C1CCCCC1 (centres unmarked) : reported MIC = ?
Reply: 64

====

Test system: S. aureus USA300 MRSA BAA-1717
experimental details: MIC, S. aureus USA300 MRSA BAA-1717
Type: cell-based
measurement conditions: Staphylococcus aureus; Table XIV A. Gram-positive bacteria; read-out: S. aureus USA300 MRSA BAA-1717 MIC
Counter-ions that a name gives are not always drawn.
parameter measured: MIC (µg/mL)
Report as a plain number; the unit µg/mL is understood.

Ask: Entry N[C@H]1CC[C@H](NC2CCC(c3cn(CC4CCCCC4)c4ccc(Br)cc34)CC2)CC1 (single isomer, unassigned) [Compound 266, hydrochloride salt] : reported MIC = ?
Reply: 2

Ask: Entry Cl.Cl.NCCCNCCC(c1cn(C2CCCCC2)c2ccccc12)C1CCCCC1 (stereo not shown) : reported MIC = ?
Reply: 4

Ask: Entry Cc1cccc(C(CCN[C@H]2CC[C@H](N)CC2)c2cn(CC3CCCCC3)c3ccccc23)c1 (stereo partly shown) [Compound 199, hydrochloride] : reported MIC = ?
Reply: 4

Ask: Entry Cc1cccc(C(CCNC2CCC(N)CC2)c2cn(CC3CCCCCC3)c3ccccc23)c1 (stereo not shown) [Compound 245, hydrochloride salt] : reported MIC = ?
Reply: 2
